- Tested on: MS2 coat protein
- Measurement Protocol: apparent KD of MS2 coat protein; designed switch direction (-1 OFF switch, 1 ON switch): -1; higher = weaker reporter binding
- Condition Context: input ligand: FMN 200 uM
Quantity Name: apparent KD of MS2 coat protein
Could you kindly put the unit after your number?

Look over these answered cases.
UCUGUUCAAGGAUAUGCGUAAGGUGUUACGGCACCAGGUCUACAUGAGGAUCACCCAUGUAGAAGGUGAUCAGA [EX2 #88] (Eterna round: R97, puzzle: Exclusion 2) = 22.4 nM
GGGCCCGGAGGAUAUACAUGAGGAUCACCCAUGUAGGGCCCGGGUAUUCCCGGGCCCUGUAGAAGGUUGGGCCC [-44, -41.2 kcal, A 19%, 0,5c] (Eterna round: R97, puzzle: Exclusion 3) = 17.8 nM
UAUUGCAAGUGAGGAUAUGACAUGAGGAUCACCCAUGUAAAGGGAGUUGACUAUAUAGCAAGAUAUCAGAAGGCACAACUGUAU [JR_ExcNG2_Sub004] (Eterna round: R96, puzzle: Exclusion NG 2) = 309 nM
UAGAUACAUGAGGAUCACCCAUGUGAGGAUAUGAGAAUGAAAUGAAAUGAAUGAAGAAUCAGAAGGCACAAAGG [JL-ex1-4.31 salish99 mod] (Eterna round: R97, puzzle: Exclusion 1) = 238 nM
AGCAUCUGAGGAUAUACUGGGUAUGGAAGGCGAAGGGCCAGACAUGAGGAUCACCCAUGUAGAAGGCAGUUUGC [Esenonan] (Eterna round: R96, puzzle: Exclusion 2) = 39.2 nM
ACAGUACUGCAAGGAUAUCGUUCUAGUUUAUUACGAGAAGGUGCUUUAGUUAUUUCUUUGGGUUGACAUGAGGAUCACCCAUGU [JR_ExcNG1_Sub056] (Eterna round: R96, puzzle: Exclusion NG 1) = 156 nM

Go through the list and state apparent KD of MS2 coat protein for each entry.
1. UCCGAACAUGAGGAUCACCCAUGUCAGGAUAUAUUAAAGAAAGCCCGCGAAUGUGGGUAUAGAAGGGACAUGAA [Zaatinxe] (Eterna round: R97, puzzle: Exclusion 1)
2. UCAAUUUUGACAGGAUAUAGUUUUUGUUUUUCUCUAGAAGGGUCUUUGCACAUGAGGAUCACCCAUGUUCUUUUUAUUUGCAUU [JR_ExcNG1_Sub015] (Eterna round: R96, puzzle: Exclusion NG 1)
3. UCCCGUGAAGGAUAUGGUUACAGGCACAUGAGGAUCACCCAUGUCACCUCGAAUACCUGAUCAGAAGGUUACUCGA [Eternabot (Original) Solution 40] (Eterna round: R97, puzzle: Exclusion 5)
4. UUCCCGCGCGUGAGGAUAUGCUGAUCCCAGGAUUAGCAGAAGGCACAUGAGGAUCACCCAUGUCCAACUUGUCU [LRO-BmodExc4-14- Bluer = mod of Colors by Tatyana Zabanova] (Eterna round: R97, puzzle: Brourd's mod of Exclusion 4)
5. UUCGUGCUGCUUUGCUGUACGAGUACAUGAGGAUCACCCAUGUAGGAUAUGGUACGCUUUGCGUGCUAGAAGGAUAUGUGUUGC [salish99_ExNG3_r04_506] (Eterna round: R96, puzzle: Exclusion NG 3)
6. UACAUGAGGAUCACCCAUGUUUUGUCGUGUAUGGUAUUUAUCUAGGAUAUCAAUUGAUUUAUUCAUGAGAAGGAGAAUAUUAAU [JMF's solution 64] (Eterna round: R96, puzzle: Exclusion NG 3)

1: 15.8 nM; 2: 62.2 nM; 3: 20.1 nM; 4: 38.5 nM; 5: 24.6 nM; 6: 34.1 nM

Go through the list and state apparent KD of MS2 coat protein for each entry.
1. GUAAAUCAUGUAGGAUAUGCGUGGCGAAGCUAUGCAGAAGGACAUGAGGAUCACCCAUGUGCUUGCGUCCGCGUACGGAUGCAA [Mat - Exclusion NG 1 - Mod of JL - D70] (Eterna round: R96, puzzle: Exclusion NG 1)
2. CUAGAGUCAGGAUAUACGAGAUCGAAAGAUCGGCGAUCCCUACAUGAGGAUCACCCAUGUAGAAGGGACUCUAG [Mod 11 - Jieux - Exclusion 2] (Eterna round: R97, puzzle: Exclusion 2)

1. 292 nM
2. 28.3 nM

====

- Test system: MS2 coat protein
- Measurement Protocol: apparent KD of MS2 coat protein; higher = weaker reporter binding
- Condition Context: Eterna round: R107; input ligand: none
# class assignment by measured apparent KD of MS2 coat protein: low-valued = under 20 nM, mid-valued = from 20 nM up to 100 nM, high-valued = 100 nM and over

AGCGGCUCGAAAGAGUCGCACUCAUGUGAAGGAGCGCGCGUAAGCGCAGGUAGGUCGCACAUGAGGAUCACCCAUGUACCUUCUA [MAT - Exclusion Arginine A - Mod of Eli - D21] = high-valued

Into which bin does this sequence go? GAGGGUGAGCCUCUGGUCCGUUUGACGGAUACCAGCGAGAGGUCUCGCCCUUGGCAGCCGACGACAUGAGGAUCACCCAUGUUAA [#09 Exclusion-TheophyllineA]
low-valued

Into which bin does this sequence go? `UGGUACAUGGCGGCCGCCACUGGGUUGAAAACCUGAGGAUCACCCUGGUAAAACGCGAAAGCGACUAGGACCGGGUCAUGUACCU`
high-valued

Into which bin does this sequence go? CGCCGAGAGGGAAGGAGCGCGAUAACAUAACAUGAGGAUCACCCAUGUAAGAAAUUAAUCAUGCAGGUAGGUCGCCCAAGCGGCG [Same State Arginine B GF 3]
low-valued

Into which bin does this sequence go? AGCACUGUGACGGCCGCCACUACAUAAUAGGGUGGUCAGGUUCAUAUACAUGAGGAUCACCCAUGUAGGACCGGGUCUCAGUGCA [Omei Trp Exc B A v6]
low-valued

Into which bin does this sequence go? UGCUACAUGAGGAUCACCCAUGUGGGUGAUACCAGCAUUCGUUUAUGCCCUUGGCAGCGCAGCCGAACCAAUCAUUCGGCAGAAA [Artiusar]
mid-valued

Into which bin does this sequence go? UUAUUUAACGGAAGGAGCGCGGAAAUUAAAGUGGGUAAACAUGAGGAUCACCCAUGUAAACCGCAGGUAGGUCGCCGAUAUUUAU [#22 Exclusion - Arginine B]
mid-valued

Into which bin does this sequence go? UCGUAGGUAGGAAGGAGCGCAUACUUCACAUGAGGAUCACCCAUGUCGAGACGUGAGUCAGUGCAGGUAGGUCGCCUAGCUAUGA [Same State - Arginine B (Freestyle 25)]
mid-valued

Into which bin does this sequence go? GGGACACCGAGAAGGAGCGCAUCCAAACCACACAUGAGGAUCACCCAUGUAUAAAUAUGCAUGCAGGUAGGUCGCUCGGCGUCUC [Orordionbi]
high-valued

Into which bin does this sequence go? CGAUAUAUACGAAGGAGCGACAUGAGGAUCACCCAUGUCUACCACGUCGAAAGACGCUCAUGUCAGGUAGGUCGCGUAUAUAUCG [Astros-Eli-mod9]
high-valued

Into which bin does this sequence go? GUACAUGAGGAUCACCCAUGUAUAGUUGAAGGAGCGACCAGAGGGUCAGGUAGGUCGCAGCACAUGGUGAAAACCCGUGUAUGCC [#1 Exclusion - Arginine A Attempt #21 (Inspired by Pi)]
mid-valued

====

- Test system: MS2 coat protein
- Measurement Protocol: apparent KD of MS2 coat protein; designed switch direction (-1 OFF switch, 1 ON switch): 1; higher = weaker reporter binding
- Condition Context: input ligand: FMN 200 uM
Where apparent KD of MS2 coat protein equals or exceeds 100 nM, the correct label is TRUE; where it does not, the label is FALSE.

Solved entries (count: 5):
GGUGCCAAUAAAGCCUACAUGAGGAUCACCCAUGUAUGUAGGCAGGAUAUCGUUUGCUUUGCAAACGAGAAGGGCCUAGGCACC [JL SSNG3 1.21] (Eterna round: R96, puzzle: Same State NG 3) = FALSE
GUUCGGAAUCGAGCUGACAUGAGGAUCACCCAUGUUAGUGGGAAGGAUAUGGUACAGAAACUGUACCAGAAGGUCUUACUGUCU (Eterna round: R96, puzzle: Same State NG 3) = FALSE
GGAGCCGAUACUGAGGAUAUUCAUAUUAAAACAUGAGGAUCACCCAUGUAGGCCAGAAGGCCUUGGGAGAAGGCAGAUCGGCUCC [Biseusra - 4] (Eterna round: R96, puzzle: Same State 2) = FALSE
AAAGAAAACAUAGGAUAUGUAACAUGAGGAUCACCCAUGUGUAGCCCGUAAGGGAUGACGGAUGGACAGAAGGAUGGUCUCAGG [Default title] (Eterna round: R96, puzzle: Same State NG 2) = TRUE
GUUACAUGAGGAUCACCCAUGUAUGUGUGGGAGUAAGUGUCUUAGGAUAUCUAUUAUUUAAUUUGAGAGAAGGAAGAUUGUUGU [JMF's solution 28] (Eterna round: R96, puzzle: Same State NG 3) = TRUE

Could you verify whether the entry GAGAGACGAUUAGGAUAUACGGUGAUAAUGAUAGUAGAAGGAAUUGACAUGAGGAUCACCCAUGUAGGAAUAAUCCAGAGAGAG [Parity 26 - Jieux - Same State NG 1] (Eterna round: R96, puzzle: Same State NG 1) shows apparent KD of MS2 coat protein of no less than 100 nM?
FALSE

Could you verify whether the entry CACAUCCAGGUAGGAUAUGAGGUGCCAUAGGGAAAAGCCUAUGGACAUGAGGAUCACCCAUGUCCUCAGAAGGGCCGGACGUGA [Ceerbearre] (Eterna round: R96, puzzle: Same State NG 2) shows apparent KD of MS2 coat protein of no less than 100 nM?
FALSE

Could you verify whether the entry UGGCUCAGACUAGGAUAUAUGUGGUCACAUGAGGAUCACCCAUGUCUCGAGCUUCGGCUCGAGGCAUAGAAGGAGUCUGAGCCU [SSNG2/5-D3] (Eterna round: R96, puzzle: Same State NG 2) shows apparent KD of MS2 coat protein of no less than 100 nM?
TRUE

Could you verify whether the entry AAGCCUAAACGGCGAAAACGACAUGAGGAUCACCCAUGUACACAGGAUAUCAGCCUGCUACAGGCUGAGAAGGGUGAACCUAAA [Maisveon] (Eterna round: R96, puzzle: Same State NG 3) shows apparent KD of MS2 coat protein of no less than 100 nM?
TRUE

Could you verify whether the entry GUACAUAUCGUAGGAUAUCACGUCGAAUAGACGUGAGAAGGACGGUCCCACAUGAAUAUUAAUACAUGAGGAUCACCCAUGUAC [MOD SSNG 1/18-A1 by Brourd] (Eterna round: R96, puzzle: Same State NG 1) shows apparent KD of MS2 coat protein of no less than 100 nM?
FALSE
